The measurements presented in this section are drawn from PubChem BioAssay AID1159580.

Experiment: chemical genetic growth profiling, strain panel (AID 1159580);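 note: tested at 20 µM; growth read once vehicle control cultures reached saturation at 30 °C; 1 = growth at the plate median or of vehicle wells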
Settings: S. cerevisiae deletion strains, growth OD, locus YKL190W, strain CNB1, stronger effect = lower value
Among all 5,500 compounds or so, about 2,000 (36%) were called active. About 18% were inconclusive and are not listed. This is one part of the list.
measured.attribute: normalized growth
Kindly provide the number alone.

Examples with their reported normalized growth follow.
Cc1cc(N=CNO)c2ccccc2n1: 0.997
Cc1cccc(N(C)C(=S)Oc2ccc3ccccc3c2)c1: 0.983
CC1=CC(C)(C)NC(=S)N1: 1.01
Cc1onc(-c2c(F)cccc2Cl)c1C(=O)N1CCN(c2ncccc2C(F)(F)F)CC1: 1
CN1Cc2c(N)cccc2C(c2ccccc2)C1 (configuration not stated): 1.01

The reported normalized growth of the compound CNC(=O)CSP(=S)(OC)OC was 0.979

The reported normalized growth of the compound O=[N+]([O-])/N=C1/NCCN1Cc1ccc(Cl)cc1 was 0.997

----------
Assay: chemical genetic growth profiling, strain panel (AID 1159580)
Conditions: S. cerevisiae deletion strains, growth OD, locus YPR167C, strain met16, stronger effect = lower value
In all, about 5,500 compounds went through this assay and about 2,000 (36%) were called active. Another 18% or so got no clear call; they are omitted. The list shows a part of the results.
This section presents compounds with their documented normalized growth values.
Kindly provide the number alone.

CN(C)c1nc(N(C)C)nc(N(C)C)n1: 1.01

The reported normalized growth of the compound CC(C)=CCOc1cc2oc(=O)ccc2cc1O was 0.942

The reported normalized growth of the compound COc1cc2ccc(=O)oc2cc1O was 0.997

The reported normalized growth of the compound CC1=C2[C@](C)(C=CC1=O)C[C@H](O)[C@H]1[C@H](C)C(=O)O[C@]21C was 1.02

The reported normalized growth of the compound NCCS was 1.01

The reported normalized growth of the compound O=c1ccc2cc(O[C@@H]3O[C@H](CO)[C@@H](O)[C@H](O)[C@H]3O)c(O)cc2o1 was 0.986

----------
Assay: chemical genetic growth profiling, strain panel (AID 1159580)
Conditions: S. cerevisiae deletion strains, growth OD, locus YGL086W, strain mad1, stronger effect = lower value
Among all 5,500 compounds or so, about 2,000 (36%) were called active. About 18% were inconclusive and are not listed. This is one part of the list.
This section presents molecules with their documented normalized growth values.
Kindly provide the number alone.

Examples with their reported normalized growth follow.
Cn1c([N+](=O)[O-])cnc1COC(N)=O: 0.998
CCCCCN=C(N)N/N=C\c1c[nH]c2ccc(OC)cc12: 1.01

The reported normalized growth of the molecule COc1cc2ccc(=O)oc2c(OC)c1OC was 1

The reported normalized growth of the molecule COc1c(O)cc(O)cc1O was 1.01

The reported normalized growth of the molecule COc1ccc2c(=O)c(CC(=O)O)coc2c1 was 1.02

The reported normalized growth of the molecule c1ccc2c(c1)[nH]c1cnccc12 was 0.948

The reported normalized growth of the molecule COc1cc2ccc(=O)oc2cc1O was 0.998

----------
This section presents molecules with their documented normalized growth values.
Test: chemical genetic growth profiling, strain panel (AID 1159580)
Conditions: S. cerevisiae deletion strains, growth OD, locus YGR052W, strain FMP48, stronger effect = lower value
Screen size: about 5,500 compounds; about 2,000 (36%) were called active. About 18% were inconclusive and are not listed. The list shows a part of the results.
Kindly provide the number alone.

Examples with their reported normalized growth follow.
N#CC(C#N)=NNc1ccc(-n2ccc(C(F)(F)F)n2)cc1: 0.31
CCOC(=O)C1C(c2ccc(Br)cc2)C(C(=O)OCC)C(O)(C(F)(F)F)NC1(O)C(F)(F)F (stereo unspecified): 1
O=C(NCc1ccc(F)c(Cl)c1)Nc1csc([N+](=O)[O-])c1: 1.02
Cc1c(C(=O)NCCNc2ccc(C(F)(F)F)cc2[N+](=O)[O-])cnn1-c1ccc(F)cc1: 1.06
CCOC(=O)C(O)(c1ccc(NC(=O)Nc2ccc(Cl)cc2)cc1)C(F)(F)F (stereo unspecified): 0.991
O=C(Oc1ccc(C2SCCS2)cc1)c1cccs1: 0.821
FC(F)(F)c1ccc(NC(=S)Nc2ccc(C(F)(F)F)cc2Cl)c(Cl)c1: 0.937
O=C1OC(Nc2ccccc2SCc2ccccc2Cl)c2ccccc21 (stereo unspecified): 0.87
N#C/C(=N/Nc1ccc(Cl)cc1)C(=O)C1CC1: 0.666
CC(C)(C)c1cc(C(=O)/C(C#N)=N\Nc2ccc(Cl)cc2)no1: 0.281

Proceeding to the next molecule to report its normalized growth.
The reported normalized growth of the molecule O=C(O)c1cccc2cccc(C(=O)O)c12 was 0.113

----------
Experiment: chemical genetic growth profiling, strain panel (AID 1159580);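 note: tested at 20 µM; growth read once vehicle control cultures reached saturation at 30 °C; 1 = growth at the plate median or of vehicle wells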
Conditions: S. cerevisiae deletion strains, growth OD, locus YIL066C, strain RNR3
The campaign covered roughly 5,500 compounds. About 2,000 (36%) were called active. About 18% were inconclusive and are not listed. No stated cut-off is given here; in the data, active means normalized growth mostly below about 0.91 (no sharp cut-off); inconclusive means no clear call, values can overlap the other calls; inactive means mostly above about 0.92. This is one part of the list.
One label from this list, please: t for active, f for inactive

The following molecules have reported results that may help.
O=c1[nH]c2ccccc2n1C1CCN(CCCC(c2ccc(F)cc2)c2ccc(F)cc2)CC1: f
CN1Cc2c(N)cccc2C(c2ccccc2)C1 (stereo unspecified): f
c1coc(CNc2ncnc3nc[nH]c23)c1: f
CC(C)=CCOc1c2occc2cc2ccc(=O)oc12: t

Look up the recorded call for COc1ccc2c(=O)c(CC(=O)O)coc2c1 in this test. f

Look up the recorded call for COc1cc2ccc(=O)oc2c(O)c1O in this test. f

Look up the recorded call for C[C@]12CCC3C(CC[C@H]4C[C@@H](Cl)CC[C@]34C)C1CCC2=O (stereo partly specified) in this test. f

Look up the recorded call for CC1=C2CCC3C(CC[C@]4(C)C(=O)CCC34)[C@@]2(C)CCC1=O (stereo partly specified) in this test. f

Look up the recorded call for CC1=C(C(=O)O)N2C(=O)[C@@H](NC(=O)[C@H](N)C3=CCC=CC3)C2SC1 (stereo partly specified) in this test. f

Look up the recorded call for N#Cc1ccc2c(c1)N(CCCN1CCC(O)CC1)c1ccccc1S2 in this test. f

Look up the recorded call for O=c1ccc2cc(O[C@@H]3O[C@H](CO)[C@@H](O)[C@H](O)[C@H]3O)c(O)cc2o1 in this test. f

----------
Test: chemical genetic growth profiling, strain panel (AID 1159580);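 note: tested at 20 µM; growth read once vehicle control cultures reached saturation at 30 °C; 1 = growth at the plate median or of vehicle wells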
Conditions: S. cerevisiae deletion strains, growth OD, locus YDR392W, strain spt3, stronger effect = lower value
The whole screen tested about 5,500 compounds, of which about 2,000 (36%) were called active. Inconclusive results (about 18%) are left out. Some of the results follow.
measured.attribute: normalized growth
Kindly provide the number alone.

Examples with their reported normalized growth follow.
O=c1ccc2cc(O[C@@H]3O[C@H](CO)[C@@H](O)[C@H](O)[C@H]3O)c(O)cc2o1: 1.02
O=c1[nH]cnc2nc[nH]c12: 1.01
CCS(=O)(=O)CCn1c([N+](=O)[O-])cnc1C: 1.02

The reported normalized growth of the compound COc1cc2ccc(=O)oc2cc1O was 0.883

The reported normalized growth of the compound CCOc1ccc(Cc2nccc3cc(OCC)c(OCC)cc23)cc1OCC was 0.866

The reported normalized growth of the compound CC(C)=CCOc1cc2oc(=O)ccc2cc1O was 0.706

The reported normalized growth of the compound C=C(C)c1cc2cc(C(C)=O)c(O)cc2o1 was 0.672

The reported normalized growth of the compound CC(=O)O[C@@H]1CC2C(C)(C)[C@H](O)C[C@H](O)[C@]2(C)C2CC[C@@]3(C)C(=CC(=O)O[C@H]3c3ccoc3)[C@@]21C (stereo partly drawn) was 0.914

The reported normalized growth of the compound c1coc(CNc2ncnc3nc[nH]c23)c1 was 0.991

The reported normalized growth of the compound Nc1ncnc2nc[nH]c12 was 0.968

----------
Assay: chemical genetic growth profiling, strain panel (AID 1159580);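 note: tested at 20 µM; growth read once vehicle control cultures reached saturation at 30 °C; 1 = growth at the plate median or of vehicle wells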
Conditions: S. cerevisiae deletion strains, growth OD, locus YBR279W, strain paf1, stronger effect = lower value
Screen size: about 5,500 compounds; about 2,000 (36%) were called active. About 18% were inconclusive and are not listed. Some of the results follow.
measured.attribute: normalized growth

CCCc1nc(C(C)(C)O)c(C(=O)OCc2oc(=O)oc2C)n1Cc1ccc(-c2ccccc2-c2nn[nH]n2)cc1: 0.973 (inactive)
COc1ccc2ccc(=O)oc2c1CC=C(C)C: 0.929 (active)
COc1cc(O)c(C(C)=O)c(OC)c1: 1 (inactive)
CC(=O)Oc1ccc2c(c1)CCC1C2CCC2(C)C1CC(OC(C)=O)C2OC(C)=O (stereo unspecified): 0.987 (inactive)

The reported normalized growth of the compound C[C@]12C=CC(=O)C=C1CCC1C2C(=O)C[C@@]2(C)C1CC[C@]2(O)C(=O)CO (stereo partly specified) was 1 (inactive)

The reported normalized growth of the compound CCCCC(=O)O[C@H]1CCC2C3CCc4cc(O)ccc4C3CC[C@@]21C (stereo partly specified) was 1.01 (inactive)

The reported normalized growth of the compound O=c1ccc2cc(O[C@@H]3O[C@H](CO)[C@@H](O)[C@H](O)[C@H]3O)c(O)cc2o1 was 0.988 (inactive)

The reported normalized growth of the compound CC1=C2CCC3C(CC[C@]4(C)C(=O)CCC34)[C@@]2(C)CCC1=O (stereo partly specified) was 0.972 (inactive)

The reported normalized growth of the compound CN1CCN(C(c2ccccc2)c2ccccc2)CC1 was 0.995 (inactive)

The reported normalized growth of the compound CC(=O)Oc1ccc2c(c1)CCC1C2CC[C@@]2(C)C1CC[C@@H]2OC(C)=O (stereo partly specified) was 1.02 (inactive)

The reported normalized growth of the compound O=c1ccc2ccc(O)c(O)c2o1 was 1.01 (inactive)

The reported normalized growth of the compound c1coc(CNc2ncnc3nc[nH]c23)c1 was 1 (inactive)

The reported normalized growth of the compound CN(C)c1nc(N(C)C)nc(N(C)C)n1 was 1.01 (inactive)

The reported normalized growth of the compound Nc1ncnc2nc[nH]c12 was 0.993 (inactive)

The reported normalized growth of the compound C[C@]12CCC3C(CC[C@H]4C[C@@H](O)CC[C@]34C)C1CCC2=O (stereo partly specified) was 0.994 (inactive)

The reported normalized growth of the compound COc1cc2c(cc1-c1coc3c4c(c(OC)cc3c1=O)OC(C)(C)C=C4)OCO2 was 0.985 (inactive)

The reported normalized growth of the compound O=C(O)c1cc2cc(Cl)ccc2[nH]1 was 0.995 (inactive)

The reported normalized growth of the compound CC1=C(C(=O)O)N2C(=O)[C@@H](NC(=O)[C@H](N)C3=CCC=CC3)C2SC1 (stereo partly specified) was 1.01 (inactive)

The reported normalized growth of the compound Cc1cccc(N(C)C(=S)Oc2ccc3ccccc3c2)c1 was 1.01 (inactive)

The reported normalized growth of the compound C[C@]12CCC3c4ccc(O)cc4CCC3C1CC[C@@H]2OC(=O)CCC1CCCC1 (stereo partly specified) was 1 (inactive)
